System: rat hepatocytes
Assay: Metabolic stability in rat hepatocytes
Type: in vitro ADME
Observation type: Half-life relative to reference

Below are worked cases with known answers.
> print(dat)
                                   molecule                result
1  CC1(c2ccc(C#N)cc2F)Oc2cccc(C3CCN(Cc4nc5ccc(C(=O)O)cc5n4Cc4cncs4)CC3)c2O1 (centres unmarked)  significantly higher
2  N#Cc1cnc(COc2cccc(C3CCN(Cc4nc5ccc(C(=O)O)cc5n4Cc4cncs4)CC3)n2)c(F)c1  significantly higher
3  [2H]C([2H])(Oc1cccc(C2CCN(Cc3nc4ccc(C(=O)O)cc4n3Cc3cncs3)CC2)n1)c1ccc(C#N)cc1F  significantly higher
4  O=C(O)c1ccc2nc(CN3CCC(c4nccc(OCc5ccc(Cl)cc5F)n4)CC3)n(Cc3cncs3)c2c1   significantly lower

Pending molecule:
Quick one: Half-life relative to reference of Cc1ncsc1Cn1c(CN2CCC3(c4cccc(OCc5ccc(C#N)cc5F)n4)CC3C2)nc2ccc(C(=O)O)cc21 (centres unmarked) ?
significantly lower

Data credit: patent US12522596B2
